Experiment: qHTS RealTime-Glo MT Cell Viability Assay in HEK293 cells - 16 hour (AID 1224872); also: nearly all actives have a fitted effect of over 50% in size
Settings: RealTime-Glo luminescence; series mostly up to 76.8 µM
Records with an inconclusive call do not appear. The source made the active and inactive calls. Calls follow the shape of the dose curve; as a rule, active = well fitted cell-killing curve with a large enough effect in the repeat runs; inconclusive = weak or mixed curves, or effect the other way; inactive = flat fitted curve, though single readings scatter.
Returns: one label drawn from active, inactive

Please indicate how the test categorized CCCn1cnc2c1c(=O)n(CCCCC(C)=O)c(=O)n2C .
inactive

Let us now turn to O=C(Nc1ccccc1)c1ccccc1O
inactive

Let us now turn to CC(C)(C)OCC1CO1 (stereo not given)
inactive

Let us now turn to C=CC(=O)OCCOCCOCCOCCOC(=O)C=C
active

Let us now turn to CCO[Si](CCCCl)(OCC)OCC
inactive

----------
Recorded cytotoxicity increase, one value per entry.
Test: A CellTox Green Cytotoxicity Assay to monitor cytotoxicity in HEK293 cells - 8 hour (AID 1224884); also: % is scaled to controls: 0 for no effect and ±100 for the full control effect; nearly all actives have a fitted effect of over 35% in size
Conditions: CellTox Green fluorescence; series mostly up to 76.8 µM
Inconclusive results are not listed. Activity calls are given as the source filed them. The call rests on the fitted dose curve; in most records, active means well fitted activation curve with a large enough effect in the repeat runs; inconclusive means weak or mixed curves; inactive means flat fitted curve, though single readings scatter.

- COMPOUND: "CC(CSC(=O)c1ccccc1)C(=O)N1C[C@@H](Sc2ccccc2)C[C@H]1C(=O)O (some centres undefined)"
  EXPERIMENTAL ENDPOINT: "cytotoxicity increase"
  REPORTED VALUE: "0.0018% [at 15.8 µM] (inactive)"
- COMPOUND: "C/C=C/C(=O)CC"
  EXPERIMENTAL ENDPOINT: "cytotoxicity increase"
  REPORTED VALUE: "1.29% [at 15.8 µM] (inactive)"
- COMPOUND: "NCC(=O)O"
  EXPERIMENTAL ENDPOINT: "cytotoxicity increase"
  REPORTED VALUE: "12.2% [at 15.8 µM] (inactive)"

Give its cytotoxicity increase value. Item: NC(N)=NCCC[C@H](N)C(=O)O
-18% [at 6.97 µM] (inactive)

----------
Assay: A CellTox Green Cytotoxicity Assay to monitor cytotoxicity in HepG2 cells - 32 hour (AID 1224883); also: nearly all actives have a fitted effect of over 50% in size; also: potency is read from the fitted curve at half-maximal effect
Settings: CellTox Green fluorescence; series mostly up to 76.8 µM
Inconclusive results are not listed. Active and inactive are the calls of the source. Calls follow the shape of the dose curve; as a rule, active = well fitted activation curve with a large enough effect in the repeat runs; inconclusive = weak or mixed curves; inactive = flat fitted curve, though single readings scatter.
EXPERIMENTAL ENDPOINT: Potency

Please review the entries below; each comes with its answer.
- COMPOUND: "CN(C)c1ccc(C(c2ccccc2)c2ccc(N(C)C)cc2)cc1"
  Potency: "inactive"
- COMPOUND: "CCCCNc1ccc(C(=O)OCCOCCOCCOCCOCCOCCOCCOCCOCCOC)cc1"
  Potency: "inactive"
- COMPOUND: "CCC(Cl)CCC(Cl)C(Cl)CC(Cl)C(Cl)C(Cl)CCl (stereo unspecified)"
  Potency: "inactive"
- COMPOUND: "Clc1ccc2c(c1)CCc1cccnc1C2=C1CCNCC1"
  Potency: "23.9 µM (active)"
- COMPOUND: "CC(C)Cc1ccc(C(C)C(=O)OCc2ccccn2)cc1 (stereo unspecified)"
  Potency: "inactive"

Give its Potency value. Item: C=CCOc1ccccc1OCC(O)CNC(C)C (stereo unspecified)
inactive

Let us now turn to CCn1cc(C(=O)O)c(=O)c2cnc(N3CCNCC3)nc21
inactive

Let us now turn to Cc1cc(N)c2cc(NC(=O)Nc3ccc4nc(C)cc(N)c4c3)ccc2n1
inactive

Let us now turn to CNC(=O)CN(CCN(CCN(CC(=O)[O-])CC(=O)NC)CC(=O)[O-])CC(=O)[O-].O.[Gd+3]
inactive

Let us now turn to Nc1cccc(S(=O)(=O)c2cccc(N)c2)c1
inactive

Let us now turn to CC(=O)NO
inactive

Let us now turn to CC(C)CC(=O)C1C(=O)c2ccccc2C1=O
inactive

Let us now turn to COc1cc(C(=O)OCCCN2CCCN(CCCOC(=O)c3cc(OC)c(OC)c(OC)c3)CC2)cc(OC)c1OC
21.3 µM (active)

Let us now turn to Cc1cc(C(=O)O)ccc1[N+](=O)[O-]
inactive

Let us now turn to CC(C)Nc1ccc(NC(C)C)c2c1C(=O)c1ccccc1C2=O
9.06 µM (active)

Let us now turn to CCN(CC)CCOC(=O)C(Cc1cccc2ccccc12)CC1CCCO1 (stereo unspecified)
inactive

----------
Assay: qHTS RealTime-Glo MT Cell Viability Assay in HEK293 cells - 24 hour (AID 1224886); also: nearly all actives have a fitted effect of over 50% in size
Conditions: RealTime-Glo luminescence; series mostly up to 76.8 µM
Results filed as inconclusive are left out. Active and inactive are the calls of the source. Calls come from the whole dose curve; as a rule, active = well fitted cell-killing curve with a large enough effect in the repeat runs; inconclusive = weak or mixed curves, or effect the other way; inactive = flat fitted curve, though single readings scatter.
Returns: one label drawn from 1 for active, 0 for inactive

The examples below pair each entry with its known result.
- COMPOUND: "COc1cc(Cl)c(OC)cc1N"
  DISCRETE LABEL: 0
- COMPOUND: "COc1ccc(C(=O)Nc2nc3ccccc3c(NCc3ccccc3)c2C#N)cc1"
  DISCRETE LABEL: 0
- COMPOUND: "O=C(Nc1ccc(S(=O)(=O)N2CCOCC2)cc1)c1cc(Cl)ccc1NS(=O)(=O)c1ccc(Cl)s1"
  DISCRETE LABEL: 0
- COMPOUND: "O=P(O)(OCc1ccccc1)OCc1ccccc1"
  DISCRETE LABEL: 0
- COMPOUND: "COC(=O)C1=C(C)NC(COC(N)=O)=C(C(=O)OC(C)C)C1c1cccc(Cl)c1Cl (stereo unspecified)"
  DISCRETE LABEL: 1

Okay, now this compound:
Please indicate how the test categorized CC(COCCO)OCCO (stereo unspecified) .
0

----------
Assay: A CellTox Green Cytotoxicity Assay to monitor cytotoxicity in HEK293 cells - 24 hour (AID 1224875); also: % is scaled to controls: 0 for no effect and ±100 for the full control effect; nearly all actives have a fitted effect of over 45% in size
Details: CellTox Green fluorescence; series mostly up to 76.8 µM
Description: National Center for Advancing Translational Sciences [NCATS] NIH Chemical Genomics Center [NCGC] U.S. Environmental Protection Agency [EPA] National Institutes of Environmental Health Sciences [NIEHS] National Toxicology Program [NTP] Cell-based models are critical for drug discovery. […] Viable cells produce no appreciable increases in fluorescence. Therefore, the fluorescence signal produced by the binding interaction with dead cell DNA is proportional to cytotoxicity. […]
Inconclusive results are not listed. The source made the active and inactive calls. Calls come from the whole dose curve; as a rule, active = well fitted activation curve with a large enough effect in the repeat runs; inconclusive = weak or mixed curves; inactive = flat fitted curve, though single readings scatter.
Returns: one label drawn from 1 (active), -1 (inactive)

- MOLECULE: "CCCCC(=O)OCC(=O)[C@H]1[C@H](C)C[C@H]2[C@@H]3C[C@H](F)C4=CC(=O)C=C[C@]4(C)[C@@]3(F)[C@@H](O)C[C@@]21C"
  DISCRETE LABEL: -1
- MOLECULE: "O=C(O)c1nc(Cl)c(Cl)c(Cl)c1Cl"
  DISCRETE LABEL: -1
- MOLECULE: "COc1cc(Cl)ccc1Oc1ccc(Cl)cc1Cl"
  DISCRETE LABEL: -1
- MOLECULE: "Nc1c(CC(=O)O)cccc1C(=O)c1ccc(Br)cc1"
  DISCRETE LABEL: -1
- MOLECULE: "CC(COCCO)OCCO (stereo not given)"
  DISCRETE LABEL: -1
- MOLECULE: "CC/C=C\\CCOC(=O)CC"
  DISCRETE LABEL: -1

Okay, now this molecule:
Please indicate how the test categorized CC(=O)[O][Al] .
-1

----------
Test: qHTS assay to identify small molecule antagonists of the thyroid receptor (TR) signaling pathway (AID 743065); also: nearly all actives have a fitted effect of over 55% in size
Conditions: GH3.TRE-Luc, T3-stimulated luciferase inhibition, 23.5 h; series mostly up to 70.3 µM
Inconclusive results are not listed. The source made the active and inactive calls. The call rests on the fitted dose curve; in most records, active means well fitted inhibition curve with a large enough effect in the repeat runs; inconclusive means weak or mixed curves; inactive means no such curve, though single readings can be large or run the other way.
Returns: one label drawn from active, inactive

The examples below pair each entry with its known result.
- COMPOUND: "CC/C=C\\CCOC(=O)CC"
  DISCRETE LABEL: "inactive"
- COMPOUND: "CC[N+](C)(CC)CCOC(=O)C(O)(c1ccccc1)C1CCCCC1 (stereo unspecified)"
  DISCRETE LABEL: "inactive"
- COMPOUND: "CCCCCCCCCCCCCCCCCCOS(=O)(=O)O"
  DISCRETE LABEL: "active"
- COMPOUND: "O=[N+]([O-])c1cccc(S(=O)(=O)O)c1"
  DISCRETE LABEL: "inactive"
- COMPOUND: "CC(C)(O)c1ccc(CNC(=O)c2cccnc2Oc2ccc(F)cc2)cc1"
  DISCRETE LABEL: "inactive"

Okay, now this compound:
Please indicate how the test categorized CCCCNc1ccc(C(=O)OCCOCCOCCOCCOCCOCCOCCOCCOCCOC)cc1 .
inactive

----------
Assay: Caspase-3/7 induction in CHO-K1 cells by small molecules, qHTS cell viability counter screen (AID 1346979); also: nearly all actives have a fitted effect of over 35% in size
Conditions: CellTiter-Fluor fluorescence, 17 h; series mostly up to 92.4 µM
Results filed as inconclusive are left out. Activity calls are given as the source filed them. The call rests on the fitted dose curve; in most records, active means well fitted cell-killing curve with a large enough effect in the repeat runs; inconclusive means weak or mixed curves, or effect the other way; inactive means no such curve, though single readings can be large or run the other way.
Returns: one label drawn from active, inactive

The examples below pair each entry with its known result.
- COMPOUND: "CCCCCCCCCc1ccc(OCCOCCO)cc1"
  DISCRETE LABEL: "active"
- COMPOUND: "CCC(C)c1cc(C(C)(C)C)c(O)c(C(C)(C)C)c1 (configuration not stated)"
  DISCRETE LABEL: "inactive"
- COMPOUND: "CCOc1ccc(O)cc1"
  DISCRETE LABEL: "inactive"
- COMPOUND: "CCCCC"
  DISCRETE LABEL: "inactive"
- COMPOUND: "C[C@@H](c1ncncc1F)C(O)(Cn1cncn1)c1ccc(F)cc1F (some centres not stated)"
  DISCRETE LABEL: "inactive"
- COMPOUND: "C#Cc1cccc(Nc2ncnc3cc(OCCOC)c(OCCOC)cc23)c1"
  DISCRETE LABEL: "active"
- COMPOUND: "Nc1ccc(S(=O)(=O)Nc2ccccc2)cc1"
  DISCRETE LABEL: "inactive"
- COMPOUND: "CN1Cc2cc(C(=O)N3CCC(C4CCNCC4)CC3)ccc2NC(CC(=O)O)C1=O (configuration not stated)"
  DISCRETE LABEL: "inactive"

Please indicate how the test categorized O=C(O)c1ccc(S(=O)(=O)O)cc1C(=O)O .
inactive
